These measurements were taken from patent US6376666B1.

- Tested on: outbred male rats
- procedureText: conflict Vogel test (punished licking of water)
- Format: in vivo
- cond: 1.0 mg/kg i.p., M ± mx
Item-by-item account of number of punished lickings (shocks received in 5-min session)
I only need the number, thanks.

Example entries and their recorded answers appear below.
| chemicalStructure | endpointValue |
| --- | --- |
| Cc1cc2nc(SCCN3CCCCC3)[nH]c2cc1C | 31.6 |
| CCOc1ccc2nc(SCCN3CCOCC3)[nH]c2c1 | 15.3 |
| C=CCSc1nc2ccc(OCC)cc2[nH]1 | 29.7 |

Shifting focus to the compound that follows.
Just so you know, measured number of punished lickings (shocks received in 5-min session) for "Cc1cc2nc(SCCN3CCOCC3)[nH]c2cc1C" came out at 59.1
